test_details: recombinant UMI read abundance after kanamycin selection (control-corrected) (log10(CPM+1)); higher = more efficient recombination; extreme values may be limits of the assay; sequences stand for … in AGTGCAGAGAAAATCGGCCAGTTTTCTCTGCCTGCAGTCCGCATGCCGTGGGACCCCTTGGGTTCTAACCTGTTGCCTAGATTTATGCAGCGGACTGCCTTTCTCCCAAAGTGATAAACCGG…AGGTTGGTTTCACT; site = the 11-nt donor;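 further: IS621 bridge recombinase in Escherichia coli cells against a fixed T5 target plasmid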
Label label 1 when recombinant UMI read abundance (log10) is at or above 0.5; anything below gets label 0.

Q: Entry GGGTAGACATGGACCGGTTTTCCCGGTAATCCGTATTTGCC (site GGGTAGACTGG) : is its recombinant UMI read abundance (log10) no less than 0.5?
Result: label 1

Q: Entry AATGAGTCATGGACCGGTTTTCCCGGTAATCCGTATTTGAT (site AATGAGTCTAT) : is its recombinant UMI read abundance (log10) no less than 0.5?
Result: label 1

Q: Entry TAGCCGACATGGACCGGTTTTCCCGGTAATCCGTATTTGAC (site TAGCCGACTGT) : is its recombinant UMI read abundance (log10) no less than 0.5?
Result: label 1

Q: Entry CTCCGTACATGGACCGGTTTTCCCGGTAATCCGTATTTGAG (site CTCCCTACTCT) : is its recombinant UMI read abundance (log10) no less than 0.5?
Result: label 0

Q: Entry TCTTTAGCATGGACCGGTTTTCCCGGTAATCCGTATTTGCA (site TCTTTAGCTTG) : is its recombinant UMI read abundance (log10) no less than 0.5?
Result: label 0

Q: Entry ACACGAACATGGACCGGTTTTCCCGGTAATCCGTATTTGCC (site ACACGAACTGA) : is its recombinant UMI read abundance (log10) no less than 0.5?
Result: label 1

Q: Entry GTAGTCGCATGGACCGGTTTTCCCGGTAATCCGTATTTGCT (site GTAGTCGCTTG) : is its recombinant UMI read abundance (log10) no less than 0.5?
Result: label 1

Q: Entry CATCACACATGGACCGGTTTTCCCGGTAATCCGTATTTGGT (site CATCACACTAC) : is its recombinant UMI read abundance (log10) no less than 0.5?
Result: label 1

Q: Entry AAAAGAACATGGACCGGTTTTCCCGGTAATCCGTATTTGAA (site AAAAGAACTTT) : is its recombinant UMI read abundance (log10) no less than 0.5?
Result: label 1

Q: Entry CGGGAACCATGGACCGGTTTTCCCGGTAATCCGTATTTGAT (site CCGGAACCTAT) : is its recombinant UMI read abundance (log10) no less than 0.5?
Result: label 0

Q: Entry TGTTCCACATGGACCGGTTTTCCCGGTAATCCGTATTTGTA (site TGTTCCCCTTA) : is its recombinant UMI read abundance (log10) no less than 0.5?
Result: label 0

Q: Entry GCTCCAACATGGACCGGTTTTCCCGGTAATCCGTATTTGTA (site GGTCCAACTTA) : is its recombinant UMI read abundance (log10) no less than 0.5?
Result: label 0

Q: Entry CGAGTGCCATGGACCGGTTTTCCCGGTAATCCGTATTTGTT (site CGAGTGCCTAA) : is its recombinant UMI read abundance (log10) no less than 0.5?
Result: label 1

Q: Entry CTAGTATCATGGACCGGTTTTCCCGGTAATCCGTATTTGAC (site CTCGTCTCTGT) : is its recombinant UMI read abundance (log10) no less than 0.5?
Result: label 0

Q: Entry ATGGAGGCATGGACCGGTTTTCCCGGTAATCCGTATTTGTG (site GTGGAGGCTCA) : is its recombinant UMI read abundance (log10) no less than 0.5?
Result: label 0

Q: Entry GCTAAGCCATGGACCGGTTTTCCCGGTAATCCGTATTTGGG (site GCAAAGCCTCC) : is its recombinant UMI read abundance (log10) no less than 0.5?
Result: label 0

Q: Entry TACCACCCATGGACCGGTTTTCCCGGTAATCCGTATTTGAC (site TACCACCCTGT) : is its recombinant UMI read abundance (log10) no less than 0.5?
Result: label 0
